ASSAYED_TARGET: Metabotropic glutamate receptor 1 (Homo sapiens)
ASSAY_METHOD_TEXT: Antagonist activity against human mGluR1 expressed in HEK cells assessed as inhibition of L-glutamate-induced intracellular calcium levels at 1 uM after 18 hrs
Assay type: functional, cell-based
MEASUREMENT_PARAMETERS: HEK293
Field: inhibition. Provide a value for each of the compounds that follow.
State the answer as a number, implicitly in %.

QUERY: Specify the recorded inhibition for COc1ccc(-c2noc(-c3ccc4c(c3)N(C(C)C)C4=O)c2C)cc1 , system: Metabotropic glutamate receptor 1 (Homo sapiens).
RESULT: 9.68

QUERY: Specify the recorded inhibition for COc1ccc(-c2noc(-c3ccc4c(c3)CN(C(C)C)C4=O)c2C)cn1 , system: Metabotropic glutamate receptor 1 (Homo sapiens).
RESULT: 49.1

QUERY: Specify the recorded inhibition for CC(C)N1C(=O)c2ccc(-c3cc(-c4ccc(F)cc4F)no3)cc21 , system: Metabotropic glutamate receptor 1 (Homo sapiens).
RESULT: 11.7

QUERY: Specify the recorded inhibition for Cc1ccc(-c2cc(-c3ccc4c(c3)CN(C(C)C)C4=O)on2)cn1 , system: Metabotropic glutamate receptor 1 (Homo sapiens).
RESULT: 4.53

QUERY: Specify the recorded inhibition for CC(C)N1Cc2cc(-c3cc(-c4ccc(F)cc4F)no3)ccc2C1=O , system: Metabotropic glutamate receptor 1 (Homo sapiens).
RESULT: 39.8

QUERY: Specify the recorded inhibition for COc1ccc(-c2cc(-c3ccc4c(c3)CN(C(C)C)C4=O)on2)cc1 , system: Metabotropic glutamate receptor 1 (Homo sapiens).
RESULT: 41

QUERY: Specify the recorded inhibition for CC(C)N1C(=O)c2ccc(-c3cc(-c4ccc(Cl)cc4)no3)cc21 , system: Metabotropic glutamate receptor 1 (Homo sapiens).
RESULT: 16.4

QUERY: Specify the recorded inhibition for Cc1c(-c2ccc(Cl)cc2)noc1-c1ccc2c(c1)CN(C(C)C)C2=O , system: Metabotropic glutamate receptor 1 (Homo sapiens).
RESULT: 30.7

QUERY: Specify the recorded inhibition for Cc1c(-c2ccc3c(c2)CN(C(C)C)C3=O)nnn1-c1ccc(F)cc1F , system: Metabotropic glutamate receptor 1 (Homo sapiens).
RESULT: 92.5

QUERY: Specify the recorded inhibition for CC(C)N1C(=O)c2ccc(-c3cc(-c4ccc(F)cc4)no3)cc21 , system: Metabotropic glutamate receptor 1 (Homo sapiens).
RESULT: 12.8

QUERY: Specify the recorded inhibition for Cc1c(-c2ccc(F)cc2)noc1-c1ccc2c(c1)CN(C(C)C)C2=O , system: Metabotropic glutamate receptor 1 (Homo sapiens).
RESULT: 38.4

QUERY: Specify the recorded inhibition for CC(C)N1C(=O)c2ccc(-c3cc(-c4ccc(Cl)nc4)no3)cc21 , system: Metabotropic glutamate receptor 1 (Homo sapiens).
RESULT: 12.3

QUERY: Specify the recorded inhibition for CC(C)N1Cc2cc(-c3cc(-c4ccccc4F)no3)ccc2C1=O , system: Metabotropic glutamate receptor 1 (Homo sapiens).
RESULT: 56.3

QUERY: Specify the recorded inhibition for Cc1c(-c2ccc(F)cc2F)noc1-c1ccc2c(c1)CN(C(C)C)C2=O , system: Metabotropic glutamate receptor 1 (Homo sapiens).
RESULT: 31.9

QUERY: Specify the recorded inhibition for Cc1c(-c2ccc(Cl)nc2)noc1-c1ccc2c(c1)CN(C(C)C)C2=O , system: Metabotropic glutamate receptor 1 (Homo sapiens).
RESULT: 47.1

QUERY: Specify the recorded inhibition for CC(C)N1Cc2cc(-c3cc(-c4cccnc4F)no3)ccc2C1=O , system: Metabotropic glutamate receptor 1 (Homo sapiens).
RESULT: 23.4

QUERY: Specify the recorded inhibition for COc1ccc(-c2cc(-c3ccc4c(c3)N(C(C)C)C4=O)on2)cc1 , system: Metabotropic glutamate receptor 1 (Homo sapiens).
RESULT: 11.3

QUERY: Specify the recorded inhibition for Cc1ccc(-c2cc(-c3ccc4c(c3)CN(C(C)C)C4=O)on2)cc1 , system: Metabotropic glutamate receptor 1 (Homo sapiens).
RESULT: 37.4

QUERY: Specify the recorded inhibition for CC(C)N1Cc2cc(-c3cc(-c4ccc(Cl)nc4)no3)ccc2C1=O , system: Metabotropic glutamate receptor 1 (Homo sapiens).
RESULT: 45.4

QUERY: Specify the recorded inhibition for Cc1c(-c2ccc(Cl)cc2)noc1-c1ccc2c(c1)N(C(C)C)C2=O , system: Metabotropic glutamate receptor 1 (Homo sapiens).
RESULT: 20.3

QUERY: Specify the recorded inhibition for CC(C)N1C(=O)c2ccc(-c3cc(-c4ccccc4F)no3)cc21 , system: Metabotropic glutamate receptor 1 (Homo sapiens).
RESULT: 68

QUERY: Specify the recorded inhibition for COc1ccc(-c2cc(-c3ccc4c(c3)CN(C(C)C)C4=O)on2)cn1 , system: Metabotropic glutamate receptor 1 (Homo sapiens).
RESULT: 16.6

====

ASSAYED_TARGET: CYP1A2 (Homo sapiens, UniProt P05177)
Sequence (P05177 whole entry): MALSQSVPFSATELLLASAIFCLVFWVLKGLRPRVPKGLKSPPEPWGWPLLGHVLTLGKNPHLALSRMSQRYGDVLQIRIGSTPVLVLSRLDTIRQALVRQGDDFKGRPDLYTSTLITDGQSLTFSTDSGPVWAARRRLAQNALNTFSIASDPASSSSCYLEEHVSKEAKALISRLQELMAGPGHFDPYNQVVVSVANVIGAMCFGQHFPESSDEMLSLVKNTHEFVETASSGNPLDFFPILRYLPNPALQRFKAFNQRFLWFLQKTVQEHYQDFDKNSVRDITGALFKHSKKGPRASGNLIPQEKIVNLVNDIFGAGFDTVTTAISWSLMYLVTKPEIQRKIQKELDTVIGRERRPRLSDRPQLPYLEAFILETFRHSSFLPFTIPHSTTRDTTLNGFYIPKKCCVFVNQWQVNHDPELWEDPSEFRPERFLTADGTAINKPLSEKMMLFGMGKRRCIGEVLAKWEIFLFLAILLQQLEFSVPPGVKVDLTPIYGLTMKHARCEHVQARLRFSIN
ASSAY_METHOD_TEXT: Inhibition of CYP1A2 (unknown origin) assessed as remaining enzyme activity at 10 uM
Type: ADME
MEASUREMENT_PARAMETERS: read-out: Activity
# strict inequality: activity at 10 µM < 90% yields y, everything else yields n

QUERY: In plain terms, does CC(C)N1Cc2cc(-c3cc(-c4ccccc4F)no3)ccc2C1=O come in under 90% for activity at 10 µM?
RESULT: y

QUERY: In plain terms, does CC(C)N1C(=O)c2ccc(-c3cc(-c4ccccc4F)no3)cc21 come in under 90% for activity at 10 µM?
RESULT: n

====

ASSAYED_TARGET: CYP2C19 (Homo sapiens, UniProt P33261)
Sequence (P33261 whole entry): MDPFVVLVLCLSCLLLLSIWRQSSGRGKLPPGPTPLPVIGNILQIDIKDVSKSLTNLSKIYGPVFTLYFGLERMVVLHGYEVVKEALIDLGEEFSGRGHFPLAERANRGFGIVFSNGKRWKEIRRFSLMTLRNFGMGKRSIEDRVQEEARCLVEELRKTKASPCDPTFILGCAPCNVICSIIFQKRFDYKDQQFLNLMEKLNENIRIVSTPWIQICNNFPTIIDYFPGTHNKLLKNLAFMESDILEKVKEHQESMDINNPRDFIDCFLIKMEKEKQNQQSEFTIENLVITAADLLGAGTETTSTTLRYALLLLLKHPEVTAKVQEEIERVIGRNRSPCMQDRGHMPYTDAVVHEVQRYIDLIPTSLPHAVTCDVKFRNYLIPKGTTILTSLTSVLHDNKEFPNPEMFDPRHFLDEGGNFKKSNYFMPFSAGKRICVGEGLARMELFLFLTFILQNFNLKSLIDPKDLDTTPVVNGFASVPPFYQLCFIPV
ASSAY_METHOD_TEXT: Inhibition of CYP2C19 (unknown origin) assessed as remaining enzyme activity at 10 uM
Format: ADME
MEASUREMENT_PARAMETERS: read-out: Activity
Field: activity at 10 µM. Provide a value for each of the compounds that follow.

QUERY: Specify activity at 10 µM for CC(C)N1Cc2cc(-c3cc(-c4ccccc4F)no3)ccc2C1=O and stop.
RESULT: 58.4%

QUERY: Specify activity at 10 µM for CC(C)N1C(=O)c2ccc(-c3cc(-c4ccccc4F)no3)cc21 and stop.
RESULT: 33.2%

QUERY: Specify activity at 10 µM for Cc1c(-c2ccc(F)cc2F)noc1-c1ccc2c(c1)CN(C(C)C)C2=O and stop.
RESULT: 59.2%

QUERY: Specify activity at 10 µM for COc1ccc(-c2cc(-c3ccc4c(c3)CN(C(C)C)C4=O)on2)cn1 and stop.
RESULT: 85.9%

QUERY: Specify activity at 10 µM for CC(C)N1Cc2cc(-c3cc(-c4ccc(Cl)nc4)no3)ccc2C1=O and stop.
RESULT: 56.6%

====

ASSAYED_TARGET: CYP2C9 (Homo sapiens)
Sequence (P11712 whole entry): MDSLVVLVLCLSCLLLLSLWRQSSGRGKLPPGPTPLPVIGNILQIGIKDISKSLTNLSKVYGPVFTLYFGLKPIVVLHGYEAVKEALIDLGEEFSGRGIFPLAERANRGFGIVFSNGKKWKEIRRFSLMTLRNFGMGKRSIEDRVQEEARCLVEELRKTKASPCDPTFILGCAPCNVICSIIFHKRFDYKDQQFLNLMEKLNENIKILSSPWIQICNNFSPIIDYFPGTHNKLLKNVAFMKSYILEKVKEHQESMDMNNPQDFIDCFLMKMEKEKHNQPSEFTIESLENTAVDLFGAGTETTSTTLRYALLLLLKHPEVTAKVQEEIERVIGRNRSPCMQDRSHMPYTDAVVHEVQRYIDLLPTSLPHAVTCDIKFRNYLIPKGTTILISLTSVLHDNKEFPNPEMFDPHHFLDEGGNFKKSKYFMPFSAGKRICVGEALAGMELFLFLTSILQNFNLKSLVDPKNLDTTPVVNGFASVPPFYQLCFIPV
ASSAY_METHOD_TEXT: Inhibition of CYP2C9 (unknown origin) assessed as remaining enzyme activity at 10 uM
Assay type: ADME
MEASUREMENT_PARAMETERS: read-out: Activity
READOUT_NAME: activity at 10 µM (%)
State the answer as a number, implicitly in %.

QUERY: Specify activity at 10 µM for Cc1c(-c2ccc(F)cc2F)noc1-c1ccc2c(c1)CN(C(C)C)C2=O and stop.
RESULT: 2.55

QUERY: Specify activity at 10 µM for CC(C)N1Cc2cc(-c3cc(-c4ccccc4F)no3)ccc2C1=O and stop.
RESULT: 39.8

QUERY: Specify activity at 10 µM for COc1ccc(-c2cc(-c3ccc4c(c3)CN(C(C)C)C4=O)on2)cn1 and stop.
RESULT: 91.8

QUERY: Specify activity at 10 µM for CC(C)N1C(=O)c2ccc(-c3cc(-c4ccccc4F)no3)cc21 and stop.
RESULT: 32

QUERY: Specify activity at 10 µM for CC(C)N1Cc2cc(-c3cc(-c4ccc(Cl)nc4)no3)ccc2C1=O and stop.
RESULT: 104
